- Test system: MDA-MB-231 breast
- procedure-details: NCI-60 one-dose screen, 48 h
- details: 10 µM unless noted
This is part of a sample that, as a whole, favours compounds with a hit. Of some 83,000 tested, about 20% had one in any assay. Activity calls are given as the source filed them. How the source made its calls: active means growth percent below 10; inactive means the rest.
Mark one answer only. Choices: active, inactive

Req: What did this assay record as the result for O=C(NCCNc1cc(-c2cn(-c3ccccc3)nc2-c2cccc(O)c2)ccn1)Nc1ccc(Cl)c(C(F)(F)F)c1 ?
Resp: inactive

Req: Record: CN1C(=O)N(C)C2Nn3c(s/c(=C\c4ccccn4)c3=O)=NC21 (stereo not given)
Resp: inactive

Req: Follow-up item: N=c1c2cc(-c3ccccc3)oc2ncn1/N=C/c1ccccc1
Resp: inactive

Req: // next record Cn1c2ccccc2c2c3c(c4c5ccc(Br)cc5oc4c21)C(=O)N(O)C3=O
Resp: inactive

Req: How about CCN1C(=O)N(CC)C2SC(N/N=C/c3ccc(F)cc3)=NC21 (stereo not given) ?
Resp: inactive

Req: Do the same for CCc1ccc(NC(=O)N[C@@H](Cc2cccc(C)c2)C(=O)N[C@@H]2C(=O)N3CCC[C@H]3C(=O)N3CCCC[C@H]3C(=O)N[C@@H](CO)C(=O)N3C[C@H](C)C[C@H]3C(=O)O[C@H]2C)c(F)c1 please
Resp: inactive

Req: Next: CC(=O)Nc1ccc(NC(=O)Nc2cccc(-c3nc(-c4ccc(NC(=O)c5cccnc5)cc4Cl)no3)c2)cc1C(F)(F)F
Resp: active

Req: Also check CCCCCCCCCC[C@@H](C)[C@@H]1CC(=O)N[C@H]([C@@H](C)O)C(=O)N[C@@H](C)C(=O)N[C@H](C)C(=O)N[C@@H](CCC(N)=O)C(=O)N[C@H](Cc2ccc(O)cc2)C(=O)N[C@@H](C(C)CC)C(=O)O1 (stereo not given in full)
Resp: inactive

Req: And the next one, Nc1nc(-c2cccc([N+](=O)[O-])c2)c(N=Nc2ccccc2Cl)s1 ?
Resp: inactive

Req: Then what about the compound O=C(NNc1nc2cc(F)c(F)cc2n2cccc12)c1ncccn1 ?
Resp: inactive

Req: Try this compound too: C#Cc1ccc(NC(=O)c2ccc(/C=C/C(=O)c3nccn3C)cc2)c(F)c1
Resp: inactive

Req: What do you have for COc1cc(O)c2c(c1)/C=C/C[C@H](O)[C@H](O)C(=O)/C=C\C[C@H](C)OC2=O ?
Resp: active

Req: COc1cc(C2CC(c3ccc(Nc4nc(NCCO)nc(Nc5ccc(Cl)cc5)n4)cc3)=Nc3c(N)nc(N)nc3N2)cc(OC)c1OC (stereo not given) ?
Resp: inactive

Req: Query NC(=O)c1c(NC(=O)c2cccc(C(F)(F)F)c2F)sc2c1CCC(=O)C2 next
Resp: inactive

Req: Now consider O=C(/C=C1\C=CN(CCCCCCF)c2ccccc21)n1ccc2ccccc21 .
Resp: inactive

Req: Also, Cn1cc2c(c1)-c1c(sc3nc(-c4ccc(NC(=O)Nc5cc(C(C)(C)C)on5)cc4)cn13)CC2 please.
Resp: inactive

Req: Field entry: COc1cc2cc(Oc3ccc(NC(=O)Nc4cccc(C(F)(F)F)c4)cc3)c(C)nc2cc1OCCN(C)C
Resp: inactive

Req: And the next one, CCC(C)[C@H]1OC(=O)[C@H](C(C)C)N(C)C(=O)[C@@H](C(C)C)OC(=O)[C@H](C(C)C)N(C)C(=O)[C@@H](C(C)CC)OC(=O)[C@H](C(C)C)N(C)C1=O (stereo not given in full) ?
Resp: active

Req: And then CN1CCN(c2ccc3c(c2)nc(NNC(=O)c2ccncn2)c2cccn23)CC1 , what is it?
Resp: inactive

Req: Record: CC(=O)Nc1cccc(-n2cnc3cc(-c4ccc(O)cc4)ccc32)c1
Resp: inactive

Req: Same thing, different compound: COc1cc2c3c(n(CCCN4CCCC4)c(=O)c2cc1OC)-c1cc2c(cc1C3=O)OCO2
Resp: active

Req: Please do the same for O=c1cc(-c2ccccc2)nc2sc(-c3c[nH]c4ccc(Br)cc34)nn12 as well.
Resp: inactive

Req: And CS(=O)(=O)c1nccc(-c2c(-c3ccc(F)c(OCc4ccc(F)cc4)c3)nc3sccn23)n1 ?
Resp: inactive

Req: Quick one: Oc1ccc(CSc2nnc(-c3ccc(Oc4ccccc4)cc3)n2-c2ccccc2)c2cccnc12
Resp: inactive

Req: Okay, and O=C(CCCCCCN1CC(=O)N2[C@@H](c3ccc(Cl)c(F)c3)c3[nH]c4ccccc4c3C[C@H]2C1=O)NO ?
Resp: inactive

Req: Could you do the same for CCOC(=O)C1=C(C)N=C2Sc3ccccc3N2C1c1ccccc1 (stereo not given) , please?
Resp: inactive

Req: Lookup Cc1nn(-c2ccc(Cl)cc2)c(C)c1N=Nc1ccc2oc(=O)ccc2c1
Resp: inactive

Req: What about this compound? CN(C)c1ncc(/C=C2\SC(=S)N(Cc3ccccc3Cl)C2=O)s1
Resp: inactive

Req: Request: N/C(=N\c1nc2ccc([N+](=O)[O-])cc2s1)C(Cl)(Cl)Cl
Resp: inactive

Req: Would you kindly repeat that for CCOC(=O)c1c(NCC(=O)Nc2cccc(Cl)c2)sc2c1CCCC2 ?
Resp: inactive

Req: Now the compound N#Cc1ccc(S(=O)(=O)Nc2ccc(-c3cnc(N)[nH]3)cc2)cc1
Resp: inactive

Req: Next: C#C[C@]1(O)CC[C@H]2[C@@H]3CC=C4c5sc(Nc6cccc(C)n6)nc5CC[C@]4(C)[C@H]3CC[C@@]21C
Resp: inactive

Req: // next record C=C(C)C(=O)O[C@H]1C[C@@]2(C)OC(=CC2=O)[C@H](C)[C@H](O)[C@H]2OC(=O)C(=C)[C@@H]21
Resp: inactive

Req: Another compound to look at: CN(C)C(=O)c1ccccc1-n1cnc2ccccc2c1=O
Resp: inactive

Req: Let us now turn to O=[N+]([O-])c1ccc(-c2nnc(SCc3ccc(O)c4ncccc34)o2)cc1
Resp: inactive

###

- System: SR leukemia
- procedure-details: NCI-60 one-dose screen, 48 h
- details: 10 µM unless noted
This is part of a sample that, as a whole, favours compounds with a hit. Of some 83,000 tested, about 20% had one in any assay. Activity calls are given as the source filed them. Rule for the calls: active = growth percent below 10; inactive = the rest.
Respond using exactly one of the listed classes: yes (1) = active, no (0) = inactive

Req: Hi, do you know how CCOC(=O)c1c(NC(=O)c2cccc(C(F)(F)F)c2)sc2c(CN3CCN(C)CC3)c(O)ccc12 came out in this test?
Resp: no (0)

Req: Also COc1ccc(NS(=O)(=O)c2ccc(-c3cnc(C4CC4)o3)cc2)cc1Cl ?
Resp: no (0)

Req: Quick one: Cc1cnc2nc(NN)[nH]n12
Resp: no (0)

Req: // repeat for O=C(NCCCCCCNC(=O)c1c2c(nc3ccccc13)-c1cccnc1SC2)c1c2c(nc3ccccc13)-c1cccnc1SC2 and report
Resp: no (0)

Req: What about this molecule? CC(C)C(=O)Nc1ccc(-c2nc(-c3cccc(O)c3)c(-c3ccnc(Br)c3)[nH]2)cc1
Resp: yes (1)

Req: Next record, please: Cc1cc(F)cc(NS(=O)(=O)c2ccc(-c3cnc(C4CC4)o3)cc2)c1
Resp: no (0)

Req: Now try COc1ccc(S(=O)(=O)n2cc(C=O)c3ccccc32)c(OC)c1 .
Resp: no (0)

Req: Subsequent entry: CC(=O)C1=NN(c2ccc(Cl)cc2)C(=O)CN1C
Resp: no (0)

Req: Next molecule: O=C(NNc1nc2cc(F)c(F)cc2n2cccc12)c1ccncn1
Resp: no (0)

Req: Further, for COc1ccc(OC)c(NC2=C(Cl)C(=O)C(C)=C(C)C2=O)c1 ?
Resp: no (0)

Req: Query C=C(C)C(=O)O[C@H]1C[C@@]2(C)OC(=CC2=O)[C@H](C)[C@H](O)[C@H]2OC(=O)C(=C)[C@@H]21 next
Resp: no (0)

Req: And CCN1C(=O)N(CC)C2SC(N/N=C/C=C/c3ccccc3OC)=NC21 (centres undefined) ?
Resp: no (0)

Req: Entry O=C1C[C@@H](c2ccccc2)Oc2c(Cc3ccccc3O)c(O)c(Cc3cc(Cc4cc(Cc5ccccc5O)ccc4O)ccc3O)c(O)c21 please
Resp: no (0)

Req: Next entry: c1ccc(-c2n(Cc3ccc4ccccc4c3)c3c4ccccc4c4ccccc4c3[n+]2Cc2ccc3ccccc3c2)cc1
Resp: yes (1)

Req: Also check O=C(COc1ccc(C2SCC(=O)N2c2ccc(F)cc2)cc1)c1ccccc1 (centres undefined)
Resp: no (0)

Req: Another molecule: CCC(=O)Nc1cc(Nc2cc(NC3CC3)n3ncc(C#N)c3n2)ccc1C
Resp: no (0)

Req: Subsequent entry: Oc1ccc(CSc2nnc(-c3cnccn3)n2-c2ccccc2)c2cccnc12
Resp: no (0)

Req: And then COc1ccc(/C=C/C(=O)c2nnn(-c3ccc(Br)cc3)c2C)cc1OC , what is it?
Resp: no (0)

Req: What do we get for Cc1ccc(NC(=O)c2ccc(CN3CCN(C)CC3)c(C(F)(F)F)c2)cc1Oc1ccc(-c2[nH]nc3ncnc(N)c23)cc1 ?
Resp: yes (1)

Req: Okay, and COc1cc2oc(-c3cccc(NC(=O)c4cc(NC(=O)[C@H](C)NC(=O)OC(C)(C)C)ccc4C)c3)cc(=O)c2c(OC)c1OC ?
Resp: no (0)

Req: And C/C(=N\NC(=S)Nc1ccc(Br)cc1)c1cc2ccccc2oc1=O ?
Resp: yes (1)

Req: Same thing, different molecule: CCN1C(=O)N(CC)C2SC(N/N=C/c3ccc(OC)cc3)=NC21 (centres undefined)
Resp: no (0)

Req: Same thing, different molecule: COc1cc2cc(Oc3ccc(NC(=O)Nc4cc(C(F)(F)F)cc(C(F)(F)F)c4)cc3)c(C)nc2cc1OCCN(C)C
Resp: no (0)

Req: Try this molecule next: CCN1C(=O)N(CC)C2SC(N/N=C/c3ccccc3)=NC21 (centres undefined)
Resp: no (0)

Req: One more molecule: O=C1[C@@H]2Cc3c([nH]c4ccccc34)[C@H](c3c(Cl)cccc3Cl)N2C(=O)CN1C1CCN(Cc2c(F)cccc2F)CC1
Resp: no (0)

Req: Do the same for CNC(=O)c1cc(Oc2ccc3nc(NC(=O)c4ccc(CN5CCCN(C)CC5)c(C(F)(F)F)c4)sc3c2)ccn1 please
Resp: yes (1)

Req: And O=C(CCCCCCN1CC(=O)N2[C@@H](c3cc(F)cc(F)c3)c3[nH]c4ccccc4c3C[C@H]2C1=O)NO ?
Resp: no (0)

Req: Subsequent entry: Cc1nn(-c2ccccc2)cc1/C=N/Nc1nc(Nc2ccccc2)nc(Nc2ccc(S(N)(=O)=O)cc2)n1
Resp: no (0)

Req: Follow-up item: CN(C)C(=O)C1=NC(CO)C(=O)N(c2ccc(Cl)cc2)N1 (centres undefined)
Resp: no (0)

Req: Would you mind doing COc1cc(CNC(=O)Cc2ccccc2[N+](=O)[O-])ccc1OCC(=O)NO as well?
Resp: no (0)

Req: Same question, COc1ccc(/C=C/C(=O)c2nnn(-c3ccc(C(=O)O)cc3)c2C)cc1OC this time
Resp: no (0)

Req: Same lookup for O=S(=O)(NCCCNc1nccc(-n2cnc3ccccc32)n1)c1ccc(F)cc1 , please.
Resp: no (0)

Req: # repeat for CC[C@@](C)(NC(=O)C(C)(C)NC(=O)[C@@H](NC(=O)[C@@H]1CCCN1C(=O)C(C)(C)NC(=O)[C@H](CC(C)C)NC(=O)CNC(=O)C(C)(C)NC(=O)[C@@H](NC(=O)C(C)(C)NC(=O)[C@H](CCC(N)=O)NC(=O)[C@H](C)NC(=O)C(C)(C)NC(=O)[C@H](C)NC(=O)C(C)(C)NC(=O)[C@H](C)NC(=O)C(C)(C)NC(C)=O)C(C)C)C(C)C)C(=O)N[C@@H](CCC(N)=O)C(=O)N[C@@H](CCC(N)=O)C(=O)N[C@H](CO)CC1CCCCC1
Resp: no (0)

Req: Now the molecule C=C(C)[C@@H]1CC[C@]2(COS(C)(=O)=O)CC[C@]3(C)[C@H](CC[C@@H]4[C@@]5(C)CCCNC(C)(C)[C@@H]5CC[C@]43C)[C@@H]12
Resp: yes (1)
